tested on: BJeLR fibroblast viability, Alamar Blue fluorescence, 48 h; assay: BJeLR fibroblast growth inhibition, viability readout – cell-based, alamar blue fluorescence, 48 h, cherrypicked samples, dose response (AID 2610);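 further: BJ fibroblasts with hTERT plus SV40 large and small T and HRAS V12; EC50 for loss of viable cells so potency reflects cytotoxic compounds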
Inconclusive results are not listed. The source made the active and inactive calls.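 How the source made its calls: active means EC50 no more than tenfold above the top concentration tested, with valid fit and all samples agreeing; inconclusive means flat fit at 30 to 70% inhibition, poor fit, or split samples; inactive means EC50 beyond tenfold the top concentration tested.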

molecule: CC1CCCN(c2ccc([N+](=O)[O-])cc2C(=O)c2ccccc2)C1 (stereo not given)
EC50: < 104 nM

molecule: CCOC(=O)/C(=C\c1ccc([N+](=O)[O-])cc1)C(=O)c1cc(C(C)=O)c(Nc2ccccc2)s1
EC50: 958 nM

molecule: COc1ccc(OC)c2sc(N(CCCN(C)C)C(=O)c3ccc(S(=O)(=O)N4CCc5ccccc5C4)cc3)nc12
EC50: 108 nM

molecule: Cc1cccc2cc(C#N)c(SCC(=O)N3CC(=O)Nc4ccccc43)nc12
EC50: < 104 nM

molecule: COc1ccccc1/C=C1\SC(=S)N(CCC(=O)NCCCn2ccnc2)C1=O
EC50: > 13300 nM (inactive)

molecule: O=c1c2ccccc2cnn1-c1nc2ccccc2[nH]1
EC50: > 13300 nM (inactive)

molecule: COC(=O)C1CC23C=CCN4CCC5(c6ccccc6NC15C2C)C43 (stereo not given)
EC50: < 104 nM

molecule: FC(F)(F)c1nnc2c(Sc3ccccc3)nc3ccc(Cl)cc3n12
EC50: 577 nM

molecule: CCCCCCCCCCn1c2c(c(=N)c3c1CCC3)CCC2
EC50: 820 nM

molecule: COc1ccc(NC(=O)CN(C)S(=O)(=O)c2ccc3[nH]c(=O)oc3c2)cc1
EC50: > 13300 nM (inactive)

molecule: CCCCCOc1ccc(Br)cc1/C(C)=N/NC1=NCCN1
EC50: 697 nM

molecule: CCCCCN=C(N)N/N=C/c1c[nH]c2ccc(OC)cc12
EC50: 2980 nM

molecule: COc1cccc(N(C(=O)CCl)C(C(=O)NCCc2ccccc2)c2cccs2)c1 (stereo not given)
EC50: 212 nM

molecule: CC(C)(C)c1ccc(-n2nc(C#N)c(Cl)cc2=O)cc1
EC50: 963 nM

molecule: COc1ccc(S(=O)(=O)N2c3ccc(F)cc3CCC2C)cc1 (stereo not given)
EC50: < 104 nM

* * *

tested on: BJeLR fibroblast viability, Alamar Blue fluorescence, 48 h; assay: BJeLR fibroblast growth inhibition, viability readout – cell-based, alamar blue fluorescence, 48 h, cherrypicked samples, dose response (AID 2610);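 further: BJ fibroblasts with hTERT plus SV40 large and small T and HRAS V12; EC50 for loss of viable cells so potency reflects cytotoxic compounds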
Records with an inconclusive call do not appear. Calls of active or inactive are those of the source.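 How the source made its calls: active means EC50 no more than tenfold above the top concentration tested, with valid fit and all samples agreeing; inconclusive means flat fit at 30 to 70% inhibition, poor fit, or split samples; inactive means EC50 beyond tenfold the top concentration tested.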
Classes used: active, inactive

compound: COc1ccccc1C(=O)Nc1nc2ccccc2[nH]1
class-label: inactive

compound: COC(=O)C[C@](O)(CCCC(C)(C)O)C(=O)O[C@@H]1C(OC)=C[C@]23CCCN2CCc2cc4c(cc2[C@H]13)OCO4
class-label: active

compound: Cc1nn(-c2ccccc2)c(Cl)c1CN(C(=O)CCl)c1ccc(Cl)cc1
class-label: active

compound: COc1cc(C2CC(c3cccs3)=NN2C(=O)CCl)ccc1OC(F)F (stereo not given)
class-label: active

compound: CC(C)c1cc(C(=O)N/N=C/C(Br)=C/c2ccccc2)n[nH]1
class-label: active

compound: O=[N+]([O-])c1c(Nc2ccccn2)cc(Cl)c2nonc12
class-label: active

compound: Cc1onc(C(=O)N2CCN(C(c3ccccc3)c3ccccc3)CC2)c1[N+](=O)[O-]
class-label: active

compound: O=c1cnnc(N/N=C/c2ccccn2)[nH]1
class-label: active

compound: O=[N+]([O-])c1ccc(N=Nc2ncc[nH]2)cc1
class-label: active

compound: COc1ccc(/C=N\NC(=O)c2cccc(F)c2)cc1COc1ccccc1
class-label: active
